# Test system: MA9.3 AML cells
# experimentDescription: AML cytotoxicity, MTT assay on MA9.3 AML cell line
# Format: cell-based, human
# measurementContext: Homo sapiens, read-out: IC50 against MA9.3 AML cells
recordedMetric: IC50
The reply should consist of the numeric value with the unit placed after it.

Look up IC50 for this compound: Oc1ccc(OCCN(CCOc2ccc(O)cc2)c2ccccc2)cc1 [Compound 25]
3000 nM

Look up IC50 for this compound: COc1cccc2c1C(=O)c1c(O)c3c(c(O)c1C2=O)C[C@@](O)(C(=O)CO)C[C@@H]3O[C@H]1C[C@H](N)[C@H](O)[C@H](C)O1 [doxorubicin]
86 nM

Look up IC50 for this compound: CN(CCCOc1ccc(O)cc1)c1ccccc1 [Compound 9, 4-(3-(methyl(phenyl)amino)propoxy)phenol]
700 nM

Look up IC50 for this compound: O=C(O)CCCc1ccc(N(CCCl)CCCl)cc1 [chlorambucil]
8700 nM
